Biological target: human histamine H3 receptor (Homo sapiens, UniProt Q9Y5N1)
Construct: One microgram of supercoiled H3 receptor cDNA was added to the cells and mixed; expressed in transfected cells; membranes prepared from cell pellets
Sequence (Q9Y5N1 whole entry): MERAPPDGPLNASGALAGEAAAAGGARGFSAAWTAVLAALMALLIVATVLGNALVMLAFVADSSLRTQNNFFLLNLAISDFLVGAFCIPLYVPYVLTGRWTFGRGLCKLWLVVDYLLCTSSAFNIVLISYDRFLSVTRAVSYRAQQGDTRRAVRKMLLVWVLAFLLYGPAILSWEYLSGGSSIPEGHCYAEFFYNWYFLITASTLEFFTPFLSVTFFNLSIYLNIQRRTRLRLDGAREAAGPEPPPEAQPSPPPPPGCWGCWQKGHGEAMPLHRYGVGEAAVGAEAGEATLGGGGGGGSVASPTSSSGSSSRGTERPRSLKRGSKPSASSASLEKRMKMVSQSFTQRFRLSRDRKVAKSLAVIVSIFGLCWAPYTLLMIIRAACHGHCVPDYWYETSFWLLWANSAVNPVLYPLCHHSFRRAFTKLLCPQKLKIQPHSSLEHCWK
Test: [3H]-N-methylhistamine binding
Conditions: membranes of histamine H3 receptor-expressing SK-N-MC cells; 0.8 nM [3H]-N-methylhistamine; 45 min at 25° C.; read-out: Ki
Kindly state pKi for each of the entries shown.
Worth noting: pKi values are minus log10 of concentrations stated in mol/L.

query: Fill in the blank: the reported pKi of `C(#Cc1ccc(CN2CCOCC2)cc1)CCN1CCCCC1` is ____.
result: 8.26

query: Fill in the blank: the reported pKi of `C(#Cc1ccc(CNC2CCCCC2)cc1)CCN1CCCCC1` is ____.
result: 9.30

query: Fill in the blank: the reported pKi of `C(#Cc1ccc(CN2CCCCC2)cc1)CCN1CCSCC1` is ____.
result: 8.22

query: Fill in the blank: the reported pKi of `OC1CCN(Cc2ccc(C#CCCN3CCCCC3)cc2)CC1` is ____.
result: 8.77

query: Fill in the blank: the reported pKi of `C(#Cc1ccc(CN2CCN(c3ccccc3)CC2)cc1)CCN1CCCCC1` is ____.
result: 8.15

query: Fill in the blank: the reported pKi of `C=CCN(Cc1cccc(C#CCCN2CCCCC2)c1)C1CCCC1` is ____.
result: 8.70

query: Fill in the blank: the reported pKi of `CCN(CC)Cc1ccc(C#CCCN2CCCCC2)cc1` is ____.
result: 8.96

query: Fill in the blank: the reported pKi of `COc1ccc(CCN(C)Cc2cccc(C#CCCN3CCCCC3)c2)cc1OC` is ____.
result: 8.52

query: Fill in the blank: the reported pKi of `C(#Cc1cccc(CN2CCN(c3ncccn3)CC2)c1)CCN1CCCCC1` is ____.
result: 8.05

query: Fill in the blank: the reported pKi of `C(#Cc1ccc(CN2CCC3(CC2)OCCO3)cc1)CCN1CCCCC1` is ____.
result: 8.74

====

Molecular target: human histamine H3 receptor (Homo sapiens)
Construct: One microgram of supercoiled H3 receptor cDNA was added to the cells and mixed; expressed in transfected cells; membranes prepared from cell pellets
Assay: [3H]-N-methylhistamine binding
Settings: membranes of histamine H3 receptor-expressing SK-N-MC cells; 0.8 nM [3H]-N-methylhistamine; 45 min at 25° C.; read-out: Ki
Experimental: Transfection of Cells with Human Histamine Receptor A 10 cm tissue culture dish with a confluent monolayer of SK-N-MC cells was split two days prior to transfection. […] After 10 days dishes were analyzed for surviving colonies of cells. […] Cell pellets from histamine H3 receptor-expressing SK-N-MC cells were homogenized in 20 mM Tris HCl/0.5 mM EDTA. […] Filters were dried, added to 4 mL scintillation cocktail and then counted on a liquid scintillation counter. […]
MEASURED PARAMETER: pKi
Worth noting: pKi values are minus log10 of concentrations stated in mol/L.

query: Fill in the blank: the reported pKi of NC(=O)C1CCN(Cc2ccc(C#CCCN3CCCCC3)cc2)CC1 [Example 30] is ____.
result: 8.80

query: Fill in the blank: the reported pKi of CN1CCN(CCC#Cc2ccc(CN3CCCCC3)cc2)CC1 [Example 22] is ____.
result: 7.68

query: Fill in the blank: the reported pKi of C(#Cc1ccc(CN2CCCCC2)cc1)CCN1CCOCC1 [Example 21] is ____.
result: 7.82
